Entry source: patent US20140045746A1

- system: hGPR40 (Homo sapiens, UniProt O14842)
- Sequence (O14842 whole entry): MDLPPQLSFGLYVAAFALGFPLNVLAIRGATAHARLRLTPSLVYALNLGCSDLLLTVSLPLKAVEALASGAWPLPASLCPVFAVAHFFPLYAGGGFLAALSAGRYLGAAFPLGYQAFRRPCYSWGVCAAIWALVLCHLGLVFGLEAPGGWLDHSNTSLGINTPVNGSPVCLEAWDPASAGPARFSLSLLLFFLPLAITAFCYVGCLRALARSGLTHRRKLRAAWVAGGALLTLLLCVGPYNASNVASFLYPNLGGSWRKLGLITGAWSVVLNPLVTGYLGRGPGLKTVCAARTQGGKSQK
- procedure_summary: GPR40 Inositol Phosphate Turnover (IP1) Assay
- Format: cell-based
- Set-up: expressed in transfected cells; host or cells: HEK cells stably expressing the aequorin reporter
- condition_label: HEK cells stably expressing human GPR40; 0% serum; read-out: hGPR40 IP1 EC50 (0% serum)
Could you please mark yes for values of EC50 below 30 nM and no for values at or above it?

>>> qualitative_label("CO/N=C(\\C)CCCOc1cc(C)c(-c2cccc(COc3cc4c(cn3)[C@H]3[C@@H](C4)[C@@H]3C(=O)O)c2)c(C)c1 [Compound 17-5]")
"no"

As a next step, examine the compound that follows.
query: Threshold test, EC50 < 30 nM: Cc1nc(OCCOCC(C)(C)O)ccc1-c1ccc(F)c(COc2cc3c(cn2)[C@H]2[C@@H](C3)[C@@H]2C(=O)O)c1 [Compound 7-8]
result: no
